Assay: chemical genetic growth profiling, strain panel (AID 1159580);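 also: tested at 20 µM; growth read once vehicle control cultures reached saturation at 30 °C; 1 = growth at the plate median or of vehicle wells; lower values mean less growth of the strain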
Conditions: S. cerevisiae deletion strains, growth OD, locus YPR141C, strain kar3, active compounds read low
Screen size: about 5,500 compounds; about 2,000 (36%) were called active. Roughly 18% stayed inconclusive and do not appear here. The list shows a part of the results.
Give measured normalized growth for each item. Keep answers brief.

Use the examples below as a reference point.
molecule=Cc1cc(O)cc(C)c1Cl observed_measurement="0.999 (inactive)"
molecule="COC(=O)C[C@H]1C(C)(C)C2(O)OC34CC2C(=O)[C@]1(C)C3CC[C@]1(C)C4=CC(=O)O[C@H]1c1ccoc1 (stereo partly specified)" observed_measurement="1.01 (inactive)"
molecule=COc1ccc2[nH]cc(CCN)c2c1 observed_measurement="0.976 (inactive)"
molecule=Cc1cc(O)cc(=O)o1 observed_measurement="0.984 (inactive)"
molecule=NNC(=O)c1ccncc1 observed_measurement="0.99 (inactive)"

Then there is this molecule:
**Q:** Query (molecule): CNC(=O)O/N=C\C(C)(C)SC ; field requested: normalized growth
**A:** 0.996 (inactive)

---

Give measured normalized growth for each item. Keep answers brief.
Experiment: chemical genetic growth profiling, strain panel (AID 1159580)
Details: S. cerevisiae deletion strains, growth OD, locus YNL233W, strain BNI4, active compounds read low
The campaign covered roughly 5,500 compounds. About 2,000 (36%) were called active. Another 18% or so got no clear call; they are omitted. Some of the results follow.
Numbers only.

Use the examples below as a reference point.
sample_smiles=CCCCCCCCCCCC[C@H](C(=O)O)[C@@H](C)C(=O)O test_readout="normalized growth" observed_measurement=1
sample_smiles=O=C1c2c(O)cccc2Cc2cccc(O)c21 test_readout="normalized growth" observed_measurement=1.05
sample_smiles=O=c1cc(CO)occ1O test_readout="normalized growth" observed_measurement=1.01

**Q:** Query (compound): CCOP(=S)(OCC)Oc1nc(Cl)c(Cl)cc1Cl ; field requested: normalized growth
**A:** 0.993

---

Assay: chemical genetic growth profiling, strain panel (AID 1159580)
Conditions: S. cerevisiae deletion strains, growth OD, locus YKL048C, strain ELM1, active compounds read low
The campaign covered roughly 5,500 compounds. About 2,000 (36%) were called active. About 18% were inconclusive and are not listed. This is one part of the list.
TEST READOUT: normalized growth
Give bare numbers.

Use the examples below as a reference point.
compound=OC1CCN(c2cc(C(F)(F)F)nc3cc(Cl)cc(Cl)c23)CC1 observed_measurement=0.979
compound=O=C(c1cccs1)N(Cc1cccnc1)Cc1ccc(Cl)cc1Cl observed_measurement=0.963
compound=Cc1nc(-c2ccccn2)nc(SCc2ccccc2)c1Cl observed_measurement=0.96
compound=COC(=O)c1cnn(-c2c(Cl)cccc2Cl)c1C=C(C#N)C#N observed_measurement=0.922
compound=N#Cc1c2ccccc2nc2ccccc12 observed_measurement=0.746
compound="S=C(NNC(=S)NC1CC2C=CC1C2)Nc1ccc(Br)c(Cl)c1 (centres undefined)" observed_measurement=0.982
compound=O=C(NCCNc1ncc(Cl)cc1C(F)(F)F)C(F)(F)Sc1ccccc1 observed_measurement=0.973
compound=O=C(Nc1ccccc1Sc1ccc([N+](=O)[O-])cc1[N+](=O)[O-])C(Cl)(Cl)Cl observed_measurement=0.976
compound=Nc1ccc(Sc2ccccc2)nc1Sc1ccccc1 observed_measurement=0.969
compound="CC(C)Cc1ccc(C(C)C(=O)Nc2nn(C)c3ccccc23)cc1 (centres undefined)" observed_measurement=0.965

Look up normalized growth for the entries below, preserving their order.
1. Cc1nc(-c2cccnc2)nc(NCc2ccccc2)c1Cl
2. O=C(NCCNc1ncc(C(F)(F)F)cc1Cl)C(F)(F)Sc1ccccc1
3. O=C(N/N=C\c1cc(Br)ccc1O)c1ccccc1Oc1ccccc1
4. Cc1nc(-c2ccccn2)nc(N(C)Cc2ccccc2)c1Cl
5. COc1ccc2nc3ccccc3c(N)c2c1
6. CSc1n[nH]c(-c2cc(C(F)(F)F)cc(C(F)(F)F)c2)n1

**A:**
1. 0.94
2. 0.939
3. 0.915
4. 0.982
5. 0.264
6. 0.904

Look up normalized growth for the entries below, preserving their order.
1. Fc1ccc(NC(=S)N2CCCN(Cc3ccc(Cl)cc3Cl)CC2)cc1
2. C=CCc1c(CCC)nc(-c2ccccn2)[nH]c1=O
3. Brc1ccc2[nH]c3c(c2c1)CCC3
4. O=C(Nc1ccc(Cl)cc1)SCc1c(Cl)cccc1Cl
5. Nc1ccccc1C(=O)N/N=C\c1cc(Br)ccc1O
6. O=C(NCC(c1ccccc1)c1c[nH]c2ccccc12)c1ccc(C(F)(F)F)cc1 (centres undefined)
7. S=C(Nc1ccc(Cl)cc1)SCc1c(Cl)cccc1Cl

**A:**
[0.981, 0.966, 0.769, 0.891, 0.928, 1, 0.992]

**Q:** Query (compound): O=C(c1ccc(Cl)cc1)N(Cc1ccccc1)Cc1cccnc1 ; field requested: normalized growth
**A:** 0.965

---

Assay: chemical genetic growth profiling, strain panel (AID 1159580)
Conditions: S. cerevisiae deletion strains, growth OD, locus YBL061C, strain skt5
In all, about 5,500 compounds went through this assay and about 2,000 (36%) were called active. About 18% were inconclusive and are not listed. Cut-off read from the data, not from the text of the source: active = normalized growth mostly below about 0.91 (no sharp cut-off); inconclusive = no clear call, values can overlap the other calls; inactive = mostly above about 0.92. The list shows a part of the results.
Assign a class; possible classes are active, inactive

**Q:** Identify the outcome logged in this assay for the compound shown: CC(CC(=O)C(O)C(C)(C)O)C1C(=O)CC2(C)C3=CCC4C(C)(C)C(OC5OCC(O)C(O)C5O)CCC45CC35C(O)CC12C (centres undefined)
**A:** inactive

---

Assay: chemical genetic growth profiling, strain panel (AID 1159580)
Conditions: S. cerevisiae deletion strains, growth OD, locus YCL011C, strain gbp2, active compounds read low
Screen size: about 5,500 compounds; about 2,000 (36%) were called active. Inconclusive results (about 18%) are left out. The list shows a part of the results.
Kindly apply the following: Satisfied if normalized growth is less than 0.9, Not satisfied in every other case.

**Q:** Quick check: does N=C(N)c1ccc(OCCCCCOc2ccc(C(=N)N)cc2)cc1 have normalized growth under 0.9?
**A:** Not satisfied

**Q:** Quick check: does COC(=O)C[C@H]1C(C)(C)C2(O)OC34CC2C(=O)[C@]1(C)C3CC[C@]1(C)C4=CC(=O)O[C@H]1c1ccoc1 (stereo partly specified) have normalized growth under 0.9?
**A:** Not satisfied

---

Give measured normalized growth for each item. Keep answers brief.
Experiment: chemical genetic growth profiling, strain panel (AID 1159580);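 also: tested at 20 µM; growth read once vehicle control cultures reached saturation at 30 °C; 1 = growth at the plate median or of vehicle wells; lower values mean less growth of the strain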
Details: S. cerevisiae deletion strains, growth OD, locus YPL051W, strain arl3, active compounds read low
The whole screen tested about 5,500 compounds, of which about 2,000 (36%) were called active. Not shown: some 18% with an inconclusive outcome. The list shows a part of the results.

Use the examples below as a reference point.
compound=COc1ccc2c(c1)c(CC(=O)O)c(C)n2C(=O)c1ccc(Cl)cc1 test_readout="normalized growth" observed_measurement="0.969 (inactive)"
compound="CC(=O)O[C@H]1CC[C@@]2(C)C(CC[C@]3(C)C2CC=C2C4CC(C)(C)CC[C@]4(C)CC[C@]23C)C1(C)C (stereo partly drawn)" test_readout="normalized growth" observed_measurement="1.01 (inactive)"

Then there is this compound:
**Q:** Query (compound): CC(C)(Oc1ccc(CCNC(=O)c2ccc(Cl)cc2)cc1)C(=O)O ; field requested: normalized growth
**A:** 0.984 (inactive)

---

Assay: chemical genetic growth profiling, strain panel (AID 1159580);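 also: tested at 20 µM; growth read once vehicle control cultures reached saturation at 30 °C; 1 = growth at the plate median or of vehicle wells; lower values mean less growth of the strain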
Settings: S. cerevisiae deletion strains, growth OD, locus YDR001C, strain nth1, active compounds read low
The campaign covered roughly 5,500 compounds. About 2,000 (36%) were called active. Another 18% or so got no clear call; they are omitted. The list shows a part of the results.
TEST READOUT: normalized growth
Answers are plain numbers.

Look up normalized growth for the entries below, preserving their order.
1. Cc1ccc(-c2cc(C(F)(F)F)nn2-c2ccc(S(N)(=O)=O)cc2)cc1
2. CC1(C)CC(O)C2(C)CCC3(C)C(=CCC4C5(C)CCC(O)C(C)(CO)C5CCC43C)C2C1 (stereo not given)
3. O=C1C(O)=C(O)C(=O)C(O)=C1O
4. CC(C)(Sc1cc(C(C)(C)C)c(O)c(C(C)(C)C)c1)Sc1cc(C(C)(C)C)c(O)c(C(C)(C)C)c1
5. COC(=O)Nc1nc2ccc(Sc3ccccc3)cc2[nH]1

**A:**
1: 1.02; 2: 1.02; 3: 1; 4: 1.02; 5: 0.996

---

Experiment: chemical genetic growth profiling, strain panel (AID 1159580);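 also: tested at 20 µM; growth read once vehicle control cultures reached saturation at 30 °C; 1 = growth at the plate median or of vehicle wells; lower values mean less growth of the strain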
Settings: S. cerevisiae deletion strains, growth OD, strain TSCII
The whole screen tested about 5,500 compounds, of which about 2,000 (36%) were called active. Not shown: some 18% with an inconclusive outcome. Rule as the data show it: active = normalized growth mostly below about 0.91 (no sharp cut-off); inconclusive = no clear call, values can overlap the other calls; inactive = mostly above about 0.92. Some of the results follow.
Assign a class; possible classes are class 1 (active), class 0 (inactive)

Past entries and their recorded results:
sample_smiles=CSc1n[nH]c(-c2cc(C(F)(F)F)cc(C(F)(F)F)c2)n1 label_class="class 0"
sample_smiles=O=C(c1cccs1)N(Cc1cccnc1)Cc1ccc(Cl)cc1Cl label_class="class 0"
sample_smiles=Cc1ccc(S(=O)(=O)n2c(Sc3ccc([N+](=O)[O-])cc3[N+](=O)[O-])nc3cc(C)ccc32)cc1 label_class="class 0"

**Q:** Identify the outcome logged in this assay for the compound shown: N#Cc1c2ccccc2nc2ccccc12
**A:** class 1

**Q:** Identify the outcome logged in this assay for the compound shown: Clc1ccc2c(c1)c1ccccc1n2CN1CCOCC1
**A:** class 0

**Q:** Identify the outcome logged in this assay for the compound shown: O=C(Nc1ccc(Cl)cc1)SCc1c(Cl)cccc1Cl
**A:** class 0
